This collection of values is drawn from paper PMC9558907.

MEASURED ENDPOINT: melting point

# count of solved cases: 5
1) COC(=O)[C@H](Cc1ccccc1)NC(=O)c1cn(CCCCC#N)c2ncccc12	102 to 105 °C
2) CC(C)[C@H](NC(=O)c1cn(CCCCC#N)c2ccccc12)C(N)=O	177 to 180 °C
3) COC(=O)[C@@H](NC(=O)c1cn(CCCCF)c2ncccc12)C(C)C	81 to 82 °C
4) COC(=O)[C@H](Cc1ccccc1)NC(=O)c1cn(CCCCF)c2ccccc12	124 to 126 °C
5) CC(C)[C@H](NC(=O)c1cn(CCCCC#N)c2ncccc12)C(N)=O	181 to 182 °C

Entry NC(=O)[C@H](Cc1ccccc1)NC(=O)c1cn(CCCCF)c2ccccc12 : reported melting point = ?
102 to 104 °C

Consider next the molecule N#CCCCCn1cc(C(=O)N[C@@H](Cc2ccccc2)C(N)=O)c2ccccc21 in the same way.
84 to 85 °C

// query: COC(=O)[C@H](Cc1ccccc1)NC(=O)c1cn(CCCCC#N)c2ccccc12
144 to 146 °C

What about CC(C)(C)[C@H](NC(=O)c1nn(CCCCC#N)c2ccccc12)C(N)=O ?
82 to 86 °C

---

molecular target: human CB1 (Homo sapiens, UniProt P21554); test: fluorescence-based membrane potential assay (GIRK activation) in AtT20 cells; format: cell-based; design: expressed in transfected cells; host or cells: mouse AtT20 FlpIn cells; conditions: hCB1 EC50, AtT20-hCB1; value in brackets after pEC50
Sequence (P21554 whole entry): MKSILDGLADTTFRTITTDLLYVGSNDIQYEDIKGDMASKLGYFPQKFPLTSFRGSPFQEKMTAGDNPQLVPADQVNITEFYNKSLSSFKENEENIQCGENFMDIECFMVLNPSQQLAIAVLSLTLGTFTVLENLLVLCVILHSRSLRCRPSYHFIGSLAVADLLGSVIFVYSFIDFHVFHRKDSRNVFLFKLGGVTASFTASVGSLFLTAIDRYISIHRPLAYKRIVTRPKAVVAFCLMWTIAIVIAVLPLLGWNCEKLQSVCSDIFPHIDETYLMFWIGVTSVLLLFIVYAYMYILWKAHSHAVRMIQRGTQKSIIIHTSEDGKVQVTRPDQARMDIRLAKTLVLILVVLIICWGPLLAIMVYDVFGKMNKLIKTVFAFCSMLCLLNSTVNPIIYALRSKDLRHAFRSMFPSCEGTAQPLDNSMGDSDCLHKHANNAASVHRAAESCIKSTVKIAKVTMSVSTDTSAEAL
Note to self: use true only for EC50 readings below 40 nM; a reading exactly at 40 nM still gets false.

1. COC(=O)[C@H](Cc1ccccc1)NC(=O)c1nn(CCCCF)c2ccccc12	true
2. COC(=O)[C@H](Cc1ccccc1)NC(=O)c1cn(CCCCF)c2ncccc12	false
3. COC(=O)[C@@H](NC(=O)c1cn(CCCCC#N)c2ccccc12)C(C)C	false
4. COC(=O)[C@H](Cc1ccccc1)NC(=O)c1nn(CCCCC#N)c2ccccc12	true
5. CC(C)[C@H](NC(=O)c1cn(CCCCC#N)c2ccccc12)C(N)=O	false

Lab log: compare recorded EC50 with 40 nM; is it strictly lower for COC(=O)[C@@H](NC(=O)c1cn(CCCCC#N)c2ncccc12)C(C)(C)C ?
true

Follow-up entry: COC(=O)[C@H](Cc1ccccc1)NC(=O)c1cn(CCCCC#N)c2ccccc12
true

---

biological target: human CB2 (Homo sapiens, UniProt P34972); test: competitive radioligand binding assay, displacement of [3H]CP55,940, HEK cell membranes; design: expressed in transfected cells; host or cells: HEK293 cells, P2 membrane preparation; conditions: hCB2 Ki, [3H]CP55,940 1 nM, value in brackets after pKi
Sequence (P34972 whole entry): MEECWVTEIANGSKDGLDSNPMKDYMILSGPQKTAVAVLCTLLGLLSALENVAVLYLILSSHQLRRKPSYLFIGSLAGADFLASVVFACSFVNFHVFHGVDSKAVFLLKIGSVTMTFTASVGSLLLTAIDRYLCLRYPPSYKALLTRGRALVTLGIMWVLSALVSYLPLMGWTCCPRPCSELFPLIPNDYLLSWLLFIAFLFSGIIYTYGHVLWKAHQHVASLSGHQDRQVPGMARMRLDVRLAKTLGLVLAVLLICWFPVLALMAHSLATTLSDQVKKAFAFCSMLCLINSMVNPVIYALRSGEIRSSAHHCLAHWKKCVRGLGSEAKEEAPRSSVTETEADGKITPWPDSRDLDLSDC
pKi: −log10 of the molar value.
Outcome: Criterion met for pKi of at least 7; Criterion not met for anything lower.

Worked set:
1. CC(C)(C)[C@H](NC(=O)c1cn(CCCCC#N)c2ccccc12)C(N)=O	Criterion met
2. COC(=O)[C@@H](NC(=O)c1nn(CCCCF)c2ccccc12)C(C)(C)C	Criterion met
3. COC(=O)[C@H](Cc1ccccc1)NC(=O)c1cn(CCCCC#N)c2ncccc12	Criterion met
4. N#CCCCCn1cc(C(=O)N[C@@H](Cc2ccccc2)C(N)=O)c2cccnc21	Criterion not met

Does pKi meet or surpass 7 for CC(C)(C)[C@H](NC(=O)c1cn(CCCCF)c2ncccc12)C(N)=O ?
Criterion met

Same thing, different compound: COC(=O)[C@@H](NC(=O)c1nn(CCCCC#N)c2ccccc12)C(C)(C)C
Criterion met

---

Each item that follows carries a reported melting point.

1) COC(=O)[C@H](Cc1ccccc1)NC(=O)c1nn(CCCCC#N)c2ccccc12	82.5 to 84.5 °C
2) NC(=O)[C@H](Cc1ccccc1)NC(=O)c1cn(CCCCF)c2ncccc12	153 to 154 °C
3) CC(C)(C)[C@H](NC(=O)c1cn(CCCCF)c2ccccc12)C(N)=O	92 to 94 °C
4) CC(C)[C@H](NC(=O)c1cn(CCCCF)c2ccccc12)C(N)=O	225 to 227 °C
5) CC(C)(C)[C@H](NC(=O)c1cn(CCCCC#N)c2ncccc12)C(N)=O	93 to 94 °C

Look up melting point: COC(=O)[C@H](Cc1ccccc1)NC(=O)c1cn(CCCCF)c2ncccc12
109 to 112 °C

Quick one: NC(=O)[C@H](Cc1ccccc1)NC(=O)c1nn(CCCCF)c2ccccc12
100 to 103 °C

Try this compound next: CC(C)(C)[C@H](NC(=O)c1nn(CCCCF)c2ccccc12)C(N)=O
77 to 79 °C

Same question, CC(C)(C)[C@H](NC(=O)c1cn(CCCCF)c2ncccc12)C(N)=O this time
95 to 96 °C

---

target: human CB2 (Homo sapiens, UniProt P34972); assay: fluorescence-based membrane potential assay (GIRK activation) in AtT20 cells; assay type: cell-based; design: expressed in transfected cells; host or cells: mouse AtT20 FlpIn cells; conditions: hCB2 EC50, AtT20-hCB2; value in brackets after pEC50
MEASURED ENDPOINT: EC50 (nM)
Express your answer in nM, writing the number without its unit.

1) CC(C)[C@H](NC(=O)c1nn(CCCCC#N)c2ccccc12)C(N)=O [Compound 11]	4.97
2) CC(C)(C)[C@H](NC(=O)c1nn(CCCCF)c2ccccc12)C(N)=O [Compound 29]	5.28

Given the entry CC(C)(C)[C@H](NC(=O)c1nn(CCCCC#N)c2ccccc12)C(N)=O [Compound 12] , report its measured EC50.
1.76

Also, COC(=O)[C@@H](NC(=O)c1cn(CCCCF)c2ccccc12)C(C)(C)C [Compound 7] please.
2.87

Queued: CC(C)[C@H](NC(=O)c1nn(CCCCF)c2ccccc12)C(N)=O [Compound 28]
4.85

Try CC(C)(C)[C@H](NC(=O)c1cn(CCCCC#N)c2ccccc12)C(N)=O [Compound 9] next.
10.4

Queued: COC(=O)[C@@H](NC(=O)c1cn(CCCCF)c2ncccc12)C(C)(C)C [Compound 39]
3.88

---

target: human CB1 (Homo sapiens); assay: competitive radioligand binding assay, displacement of [3H]CP55,940, HEK cell membranes; parameters: expressed in transfected cells; host or cells: HEK293 cells, P2 membrane preparation; conditions: hCB1 Ki, [3H]CP55,940 1 nM, value in brackets after pKi
MEASURED ENDPOINT: pKi
pKi (log units): -log10 of the concentration in mol/L.

Solved cases (8 shown):
1) N#CCCCCn1nc(C(=O)N[C@@H](Cc2ccccc2)C(N)=O)c2ccccc21	5.96
2) COC(=O)[C@@H](NC(=O)c1cn(CCCCC#N)c2ccccc12)C(C)C	6.80
3) COC(=O)[C@@H](NC(=O)c1cn(CCCCC#N)c2ncccc12)C(C)C	5.82
4) COC(=O)[C@@H](NC(=O)c1cn(CCCCF)c2ccccc12)C(C)(C)C	7.88
5) CC(C)[C@H](NC(=O)c1nn(CCCCC#N)c2ccccc12)C(N)=O	7.36
6) CC(C)[C@H](NC(=O)c1cn(CCCCC#N)c2ncccc12)C(N)=O	5.59
7) CC(C)[C@H](NC(=O)c1cn(CCCCF)c2ccccc12)C(N)=O	6.00
8) NC(=O)[C@H](Cc1ccccc1)NC(=O)c1cn(CCCCF)c2ccccc12	5.49

For the compound CC(C)(C)[C@H](NC(=O)c1cn(CCCCC#N)c2ncccc12)C(N)=O , what pKi is on record?
6.81

CC(C)(C)[C@H](NC(=O)c1nn(CCCCF)c2ccccc12)C(N)=O ?
8.39

---

target: human CB1 (Homo sapiens, UniProt P21554); test: fluorescence-based membrane potential assay (GIRK activation) in AtT20 cells; format: cell-based; design: expressed in transfected cells; host or cells: mouse AtT20 FlpIn cells; settings: AtT20-hCB1; 10 μM, highest concentration tested; curve not fitted
# reported hCB1 maximal response at 10 μM (footnote d); entries follow

These recorded examples may help you get a feel for the data.
1) CC(C)[C@H](NC(=O)c1cn(CCCCF)c2ncccc12)C(N)=O	82 ± 4^d % CP55,940
2) CC(C)[C@H](NC(=O)c1cn(CCCCC#N)c2ncccc12)C(N)=O	80 ± 3^d % CP55,940

Item under review: N#CCCCCn1nc(C(=O)N[C@@H](Cc2ccccc2)C(N)=O)c2ccccc21 . Reported hCB1 maximal response at 10 μM (footnote d)?
104 % CP55,940

---

biological target: human CB1 (Homo sapiens, UniProt P21554); assay: competitive radioligand binding assay, displacement of [3H]CP55,940, HEK cell membranes; parameters: expressed in transfected cells; host or cells: HEK293 cells, P2 membrane preparation; details: hCB1 pKi ±SEM, [3H]CP55,940 1 nM, mean ± SEM of 3 to 6 independent experiments
Reported pKi by item:
Bear in mind: pKi is minus log10 of a mol/L concentration; give just that figure.

Known results for compounds:
1. CC(C)(C)[C@H](NC(=O)c1cn(CCCCF)c2ccccc12)C(N)=O	7.46
2. COC(=O)[C@@H](NC(=O)c1cn(CCCCC#N)c2ncccc12)C(C)(C)C	8.03

Entry under review: COC(=O)[C@H](Cc1ccccc1)NC(=O)c1nn(CCCCF)c2ccccc12 . Reported pKi?
7.47
